- measurement.protocol: physchem
- run.conditions: buffer
- Description: Aqueous solubility of the compound
// solubility lookup, one value per entry
property.measured: solubility

1) CN1CCN(CCCn2c3ccc(O)cc3c3c4c(c(-c5ccccc5)cc32)C(=O)NC4=O)CC1 = 28 µg/mL
2) O=C(O)CCn1c2ccc(O)cc2c2c3c(c(-c4ccccc4Cl)cc21)C(=O)NC3=O = > 60 µg/mL
3) O=C(CCn1c2ccc(O)cc2c2c3c(c(-c4ccccc4Cl)cc21)C(=O)NC3=O)NS(=O)(=O)c1ccccc1 = 47 µg/mL
4) COCCCn1c2ccc(O)cc2c2c3c(c(-c4ccccc4Cl)cc21)C(=O)NC3=O = < 3 µg/mL
5) O=C1NC(=O)c2c1c(-c1ccccc1Cl)cc1c2c2cc(O)ccc2n1CCCO = < 3 µg/mL
6) O=C1NC(=O)c2c1c(-c1ccccc1Cl)cc1c2c2cc(O)ccc2n1CC(O)CO (centres undefined) = 12 µg/mL
7) COC(=O)CCn1c2ccc(O)cc2c2c3c(c(-c4ccccc4Cl)cc21)C(=O)NC3=O = < 3 µg/mL
8) CN(C)CCn1c2ccc(O)cc2c2c3c(c(-c4ccccc4Cl)cc21)C(=O)NC3=O = 8.5 µg/mL
9) O=C1NC(=O)c2c1c(-c1ccccc1Cl)cc1c2c2cc(O)ccc2n1CC[S+]([O-])c1nnc[nH]1 (centres undefined) = 18 µg/mL
10) CS(=O)(=O)NC(=O)CCn1c2ccc(O)cc2c2c3c(c(-c4ccccc4Cl)cc21)C(=O)NC3=O = > 60 µg/mL
11) O=C1NC(=O)c2c1c(-c1ccccc1Cl)cc1c2c2cc(O)ccc2n1CCS(=O)(=O)c1nnc[nH]1 = 16 µg/mL
12) O=C1NC(=O)c2c1c(-c1ccccc1Cl)cc1c2c2cc(O)ccc2n1CCc1nnn[nH]1 = > 60 µg/mL
13) O=C1NC(=O)c2c1c(-c1c(Cl)cccc1Cl)cc1c2c2cc(O)ccc2n1CCO = < 3 µg/mL
14) CN(C)CCNC(=O)CCn1c2ccc(O)cc2c2c3c(c(-c4ccccc4)cc21)C(=O)NC3=O = > 60 µg/mL
15) CN(C)CC(O)Cn1c2ccc(O)cc2c2c3c(c(-c4ccccc4Cl)cc21)C(=O)NC3=O (centres undefined) = > 60 µg/mL
16) COc1ccccc1-c1cc2c(c3c1C(=O)NC3=O)c1cc(O)ccc1n2CCCO = < 3 µg/mL
17) O=C1NC(=O)c2c1c(-c1ccccc1Cl)cc1c2c2cc(O)ccc2n1CCN1CCOCC1 = < 3 µg/mL
18) O=C1NC(=O)c2c1c(-c1ccccc1)cc1c2c2cc(O)ccc2n1CCCO = < 3 µg/mL
19) O=C(O)CCn1c2ccc(O)cc2c2c3c(c(-c4ccccc4)cc21)C(=O)NC3=O = > 60 µg/mL
